- System: CN0375-F725-PDC KRAS spheroid viability
- Protocol Description: Anticancer human tumor CN0375-F725-PDC patient-derived colon carcinoma cell line growth inhibition [KRAS2]
- Reported Conditions: second compound 3.16 µM; first compound 0.1 µM; stronger effect = lower value; spheroids with HUVEC and MSC
Threshold-based label: viability, T/C under 90% gives true, viability, T/C not under 90% gives false.

Compound	Assigned Category
CC1OCC2(CCN(c3cnc(Sc4ccnc(N)c4Cl)c(N)n3)CC2)C1N (stereo not given) + COc1cc2nc(C)nc(NC(C)c3cc(N)cc(C(F)(F)F)c3)c2cc1OC1CCOC1	true
COc1cc2nccc(Oc3ccc(NC(=O)C4(C(=O)Nc5ccc(F)cc5)CC4)cc3)c2cc1OC + C=CC(=O)N1CCN(c2nc(=O)n(-c3c(C)ccnc3C(C)C)c3nc(-c4c(O)cccc4F)c(F)cc23)C(C)C1	false
CC1COCCN1c1cc(-c2ccnn2C)c2ccnc(-c3ccn[nH]3)c2n1 (stereo not given) + COc1cc2nc(C)nc(NC(C)c3cc(N)cc(C(F)(F)F)c3)c2cc1OC1CCOC1	true
CC1(C)CCC(CN2CCN(c3ccc(C(=O)NS(=O)(=O)c4ccc(NCC5CCOCC5)c([N+](=O)[O-])c4)c(Oc4cnc5[nH]ccc5c4)c3)CC2)=C(c2ccc(Cl)cc2)C1 + CC1OCC2(CCN(c3cnc(Sc4ccnc(N)c4Cl)c(N)n3)CC2)C1N	true

###

IC50 overview
- Test system: CN0375-F725-PDC KRAS spheroid viability
- Protocol Description: Anticancer human tumor CN0375-F725-PDC cell line growth inhibition [KRAS2];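 note: spheroids exposed to agents for 7 days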
- Reported Conditions: curve of first compound; second compound 1 µM; spheroids with HUVEC and MSC

Molecule	Relation Qualifier	IC50 / nM
COC(=O)c1ccc2c(C(=Nc3ccc(N(C)C(=O)CN4CCN(C)CC4)cc3)c3ccccc3)c(O)[nH]c2c1 + CC1OCC2(CCN(c3cnc(Sc4ccnc(N)c4Cl)c(N)n3)CC2)C1N	=	2250
CCNC(=O)CC1N=C(c2ccc(Cl)cc2)c2cc(OC)ccc2-n2c(C)nnc21 (stereo unspecified) + CNCc1ccccc1-c1csc(C(C)Nc2nc(C)nc3cc(OC)c(OC)cc23)c1	=	1480
Cn1nccc1Nc1nccc(-c2cc3c(s2)C(C)(C)N(CCN2CCOCC2)C3=O)n1 + CNCc1ccccc1-c1csc(C(C)Nc2nc(C)nc3cc(OC)c(OC)cc23)c1	=	77.7
CCNC(=O)CC1N=C(c2ccc(Cl)cc2)c2cc(OC)ccc2-n2c(C)nnc21 (stereo unspecified) + COc1cc2nc(C)nc(NC(C)c3cc(N)cc(C(F)(F)F)c3)c2cc1OC1CCOC1	=	7200
O=C(c1cc(Cc2n[nH]c(=O)c3ccccc23)ccc1F)N1CCN(C(=O)C2CC2)CC1 + CNCc1ccccc1-c1csc(C(C)Nc2nc(C)nc3cc(OC)c(OC)cc23)c1	>	10000
CC(C)NCC(C(=O)N1CCN(c2ncnc3c2C(C)CC3O)CC1)c1ccc(Cl)cc1 (stereo unspecified) + CC1OCC2(CCN(c3cnc(Sc4ccnc(N)c4Cl)c(N)n3)CC2)C1N	>	10000
CN(C)C/C=C/C(=O)Nc1cc2c(Nc3ccc(F)c(Cl)c3)ncnc2cc1O[C@H]1CCOC1 + CNCc1ccccc1-c1csc(C(C)Nc2nc(C)nc3cc(OC)c(OC)cc23)c1	=	77.3
CC1OCC2(CCN(c3cnc(Sc4ccnc(N)c4Cl)c(N)n3)CC2)C1N (stereo unspecified) + COc1cc2nc(C)nc(NC(C)c3cc(N)cc(C(F)(F)F)c3)c2cc1OC1CCOC1	>	10000
CC1(C)CCC(CN2CCN(c3ccc(C(=O)NS(=O)(=O)c4ccc(NCC5CCOCC5)c([N+](=O)[O-])c4)c(Oc4cnc5[nH]ccc5c4)c3)CC2)=C(c2ccc(Cl)cc2)C1 + C=CC(=O)N1CCN(c2nc(OCC3CCCN3C)nc3c2CCN(c2cccc4cccc(C)c24)C3)CC1CC#N	=	2010
COc1cc(Nc2ncc3c(n2)-c2ccc(Cl)cc2C(c2c(F)cccc2OC)=NC3)ccc1C(=O)O + C=CC(=O)N1CCN(c2nc(OCC3CCCN3C)nc3c2CCN(c2cccc4cccc(C)c24)C3)CC1CC#N	>	10000
COc1cc2nccc(Oc3ccc(NC(=O)C4(C(=O)Nc5ccc(F)cc5)CC4)cc3)c2cc1OC + C=CC(=O)N1CCN(c2nc(OCC3CCCN3C)nc3c2CCN(c2cccc4cccc(C)c24)C3)CC1CC#N	=	1910
